Origin of measurements: BindingDB's records for PubMed 2905001

Norepinephrine transporter (Rattus norvegicus) data, read-out Ki
Provide the reading as a plain figure in nM.

What value of Ki has been reported for the following molecule? c1ccc2c(CCC3CCNCC3)c[nH]c2c1
513

Could you do the same for O=c1n(CCCN2CCN(c3cccc(Cl)c3)CC2)nc2ccccn12 , please?
3800

Could you do the same for COCCCC/C(=N\OCCN)c1ccc(C(F)(F)F)cc1 , please?
299

Could you do the same for COCCCCC(=NOCCN)c1ccc(Cl)cc1 , please?
6.6

---

Where a name gives a salt, the structure may show the parent alone.
Sodium-dependent dopamine transporter (Rattus norvegicus, UniProt P23977) data, read-out Ki
Sequence (P23977 whole entry): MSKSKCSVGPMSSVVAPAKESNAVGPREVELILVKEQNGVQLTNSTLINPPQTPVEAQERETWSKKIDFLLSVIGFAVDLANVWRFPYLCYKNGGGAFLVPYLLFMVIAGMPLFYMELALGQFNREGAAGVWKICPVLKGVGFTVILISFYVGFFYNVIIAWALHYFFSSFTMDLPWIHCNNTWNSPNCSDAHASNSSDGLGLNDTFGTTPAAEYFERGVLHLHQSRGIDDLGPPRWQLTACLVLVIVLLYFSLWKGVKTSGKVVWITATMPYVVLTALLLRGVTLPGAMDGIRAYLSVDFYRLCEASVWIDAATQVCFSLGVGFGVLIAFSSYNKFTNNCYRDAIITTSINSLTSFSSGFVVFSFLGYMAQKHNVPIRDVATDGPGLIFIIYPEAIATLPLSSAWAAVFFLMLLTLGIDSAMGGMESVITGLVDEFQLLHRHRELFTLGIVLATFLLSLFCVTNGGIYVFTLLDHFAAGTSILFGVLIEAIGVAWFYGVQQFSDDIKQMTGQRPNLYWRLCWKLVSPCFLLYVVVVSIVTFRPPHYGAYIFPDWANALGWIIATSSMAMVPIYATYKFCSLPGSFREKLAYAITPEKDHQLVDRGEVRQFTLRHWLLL
Provide the reading as a plain figure in µM.

What value of Ki has been reported for the following compound? COCCCCC(=NOCCN)c1ccc(Cl)cc1 [CAS_68717]
0.462

Could you do the same for CN(C)CCCN1c2ccccc2CCc2ccc(Cl)cc21 [CLOMIPRAMINE HYDROCHLORIDE] , please?
3.81

Could you do the same for c1ccc2c(CCC3CCNCC3)c[nH]c2c1 , please?
1.04

---

Answer each item with its documented pKi.
# EXPERIMENTAL TARGET: Sodium-dependent serotonin transporter (Rattus norvegicus)
# Sequence (P31652 whole entry): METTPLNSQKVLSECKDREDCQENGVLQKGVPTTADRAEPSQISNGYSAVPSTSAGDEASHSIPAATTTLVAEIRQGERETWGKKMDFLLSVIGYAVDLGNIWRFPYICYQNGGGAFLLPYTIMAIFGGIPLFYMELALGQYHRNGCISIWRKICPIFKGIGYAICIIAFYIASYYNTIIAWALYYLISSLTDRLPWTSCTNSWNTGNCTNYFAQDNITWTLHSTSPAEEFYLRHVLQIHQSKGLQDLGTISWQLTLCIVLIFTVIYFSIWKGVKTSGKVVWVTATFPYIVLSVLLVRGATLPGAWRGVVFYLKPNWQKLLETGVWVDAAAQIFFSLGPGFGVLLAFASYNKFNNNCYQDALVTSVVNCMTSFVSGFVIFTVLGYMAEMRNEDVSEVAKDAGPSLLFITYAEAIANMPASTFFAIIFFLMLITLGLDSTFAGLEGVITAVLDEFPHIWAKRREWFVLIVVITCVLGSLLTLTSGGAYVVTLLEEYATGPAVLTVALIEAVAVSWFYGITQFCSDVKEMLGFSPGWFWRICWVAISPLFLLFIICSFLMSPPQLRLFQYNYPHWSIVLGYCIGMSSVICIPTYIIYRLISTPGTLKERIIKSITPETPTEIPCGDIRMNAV
// pKi: -log10(molar conc.)

What value of pKi has been reported for the following compound? COCCCCC(=NOCCN)c1ccc(Cl)cc1
8.56

Could you do the same for c1ccc2c(CCC3CCNCC3)c[nH]c2c1 , please?
8.76

---

pKi: −log10 of the molar value.
Sodium-dependent dopamine transporter (Rattus norvegicus) data, read-out pKi

What value of pKi has been reported for the following molecule? O=c1n(CCCN2CCN(c3cccc(Cl)c3)CC2)nc2ccccn12
< 5.00

Could you do the same for COCCCC/C(=N\OCCN)c1ccc(C(F)(F)F)cc1 , please?
< 5.00

Could you do the same for CN(C)C/C=C(/c1ccc(Br)cc1)c1cccnc1 , please?
< 5.00
